Assay System: adenosine A2 receptor (Rattus norvegicus)
Construct: Corpus striatum of a rat was suspended in ice-cooled 50 mM Tris; from tissue; host or cells: rat corpus striatum (washed membrane suspension)
Run Description: Adenosine A2 Receptor Binding Test (3H-CGS 21680, rat corpus striatum)
Conditions Used: 10^-7 M; [3H]CGS 21680; read-out: A2 Receptor Inhibition Rate
Value Type: inhibition at 0.1 µM (%)

- Compound: "CCCn1c(=O)c2c(nc(/C=C/c3ccc(C(=O)O)cc3OC)n2C)n(CCC)c1=O [Compound 23]"
  Observed Result: 70
- Compound: "CCn1c(=O)c2c(nc(/C=C/c3ccc(C(=O)OC)cc3OC)n2C)n(CC)c1=O [Compound 20]"
  Observed Result: 69
- Compound: "CCCn1c(=O)c2c(nc(/C=C/c3ccc(C(=O)OC)cc3OC)n2C)n(CCC)c1=O [Compound 21]"
  Observed Result: 80
- Compound: "CCn1c(=O)c2c(nc(/C=C/c3ccc(C(C)=O)c(OC)c3)n2C)n(CC)c1=O [Compound 30]"
  Observed Result: 83

----------
Assay System: adenosine A2 receptor (Rattus norvegicus)
Construct: Corpus striatum of a rat was suspended in ice-cooled 50 mM Tris; from tissue; host or cells: rat corpus striatum (washed membrane suspension)
Run Description: Adenosine A2 Receptor Binding Test (3H-CGS 21680, rat corpus striatum)
Conditions Used: [3H]CGS 21680 (inhibition rates of the same line marked *)
Value Type: pKi
Scale note: pKi = -log10(concentration in M).

Recorded pKi for CCn1c(=O)c2c(nc(/C=C/c3cccc(C(C)=O)c3)n2C)n(CC)c1=O , please?
7.89

----------
Assay System: adenosine A2 receptor (Rattus norvegicus, UniProt P30543)
Construct: from tissue; host or cells: rat corpus striatum (washed membrane suspension)
Sequence (P30543 whole entry): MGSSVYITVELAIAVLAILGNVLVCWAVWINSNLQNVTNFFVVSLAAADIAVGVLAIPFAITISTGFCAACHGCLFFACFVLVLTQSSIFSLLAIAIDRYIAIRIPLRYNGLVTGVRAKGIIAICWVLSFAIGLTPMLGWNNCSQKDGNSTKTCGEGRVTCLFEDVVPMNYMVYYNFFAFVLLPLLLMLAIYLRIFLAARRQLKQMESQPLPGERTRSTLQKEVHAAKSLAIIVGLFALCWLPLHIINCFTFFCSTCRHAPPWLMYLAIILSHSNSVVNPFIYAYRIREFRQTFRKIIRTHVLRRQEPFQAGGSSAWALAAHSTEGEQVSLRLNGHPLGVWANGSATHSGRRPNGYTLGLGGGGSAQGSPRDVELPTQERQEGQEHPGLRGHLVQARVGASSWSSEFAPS
Run Description: Adenosine A2 Receptor Binding Test (3H-NECA + CPA, rat corpus striatum)
Conditions Used: 10^-5 M; 3H-NECA; read-out: A2 Receptor Inhibition Rate
Value Type: inhibition at 10 µM (%)

- Smiles: "CCCn1c(=O)c2c(nc(/C=C/c3cc(OC)c(OC)c(OC)c3S(=O)(=O)N(C)CCN(C)C)n2C)n(CCC)c1=O"
  Observed Result: 69
- Smiles: "CCCn1c(=O)c2c(nc(/C=C/c3cc(OC)c(OC)cc3S(=O)(=O)N3CCCCC3)n2C)n(CCC)c1=O"
  Observed Result: 74
- Smiles: "CCCN(CCC)S(=O)(=O)c1cc(OC)c(OC)cc1/C=C/c1nc2c(c(=O)n(CCC)c(=O)n2CCC)n1C"
  Observed Result: 92
- Smiles: "CCCn1c(=O)c2c(nc(/C=C/c3cc(OC)c(OC)cc3S(=O)(=O)N(CC)CC)n2C)n(CCC)c1=O"
  Observed Result: 97
- Smiles: "CCCn1c(=O)c2c(nc(/C=C/c3cc(OC)c(OC)c(OC)c3S(N)(=O)=O)n2C)n(CCC)c1=O"
  Observed Result: 68
- Smiles: "CCCn1c(=O)c2c(nc(/C=C/c3cc(OC)c(OC)c(OC)c3S(=O)(=O)O)n2C)n(CCC)c1=O"
  Observed Result: 93
- Smiles: "CCCn1c(=O)c2c(nc(/C=C/c3ccc(C(=O)OC)cc3)n2C)n(CCC)c1=O"
  Observed Result: 77
- Smiles: "CCCn1c(=O)c2c(nc(/C=C\\c3ccc(C(=O)OC)cc3)n2C)n(CCC)c1=O"
  Observed Result: 92

----------
Assay System: adenosine A2 receptor (Rattus norvegicus)
Construct: from tissue; host or cells: rat corpus striatum (washed membrane suspension)
Run Description: Adenosine A2 Receptor Binding Test (3H-NECA + CPA, rat corpus striatum)
Conditions Used: 10^-4 M; 3H-NECA; read-out: A2 Receptor Inhibition Rate
Value Type: inhibition at 100 µM (%)

Worked cases, inhibition at 100 µM given:
- Smiles: "CCCn1c(=O)c2c(nc(/C=C/c3cc(OC)c(OC)cc3S(=O)(=O)N(CC)CC)n2C)n(CCC)c1=O"
  Observed Result: 112
- Smiles: "CCCn1c(=O)c2c(nc(/C=C/c3cc(OC)c(OC)c(OC)c3S(=O)(=O)O)n2C)n(CCC)c1=O"
  Observed Result: 93
- Smiles: "CCCN(CCC)S(=O)(=O)c1cc(OC)c(OC)cc1/C=C/c1nc2c(c(=O)n(CCC)c(=O)n2CCC)n1C"
  Observed Result: 91
- Smiles: "CCCn1c(=O)c2c(nc(/C=C\\c3ccc(C(=O)OC)cc3)n2C)n(CCC)c1=O"
  Observed Result: 101
- Smiles: "CCCn1c(=O)c2c(nc(/C=C/c3cc(OC)c(OC)c(OC)c3S(N)(=O)=O)n2C)n(CCC)c1=O"
  Observed Result: 76
- Smiles: "CCCn1c(=O)c2c(nc(/C=C/c3ccc(C(=O)OC)cc3)n2C)n(CCC)c1=O"
  Observed Result: 92

a = CCCn1c(=O)c2c(nc(/C=C/c3cc(OC)c(OC)c(OC)c3S(=O)(=O)N(C)CCN(C)C)n2C)n(CCC)c1=O
b = CCCn1c(=O)c2c(nc(/C=C/c3cc(OC)c(OC)cc3S(=O)(=O)N3CCCCC3)n2C)n(CCC)c1=O
Returns: the argument ( a or b ) having the larger inhibition at 100 µM. Refer to your chosen item by its label in the answer.
a
(a: 89%, b: 60%)

----------
Assay System: adenosine A2 receptor (Rattus norvegicus, UniProt P30543)
Construct: from tissue; host or cells: rat corpus striatum (washed membrane suspension)
Run Description: Adenosine A2 Receptor Binding Test (3H-NECA + CPA, rat corpus striatum)
Conditions Used: 3H-NECA
Value Type: Ki (nM)
Please respond with the number in nM and leave the unit unwritten.

Recorded Ki for CCCn1c(=O)c2c(nc(/C=C/c3cc(OC)c(OC)cc3S(=O)(=O)O)n2C)n(CCC)c1=O , please?
670

----------
Assay System: adenosine A2 receptor (Rattus norvegicus, UniProt P30543)
Construct: Corpus striatum of a rat was suspended in ice-cooled 50 mM Tris; from tissue; host or cells: rat corpus striatum (washed membrane suspension)
Run Description: Adenosine A2 Receptor Binding Test (3H-CGS 21680, rat corpus striatum)
Conditions Used: 10^-6 M; [3H]CGS 21680; read-out: A2 Receptor Inhibition Rate
Value Type: inhibition at 1 µM (%)

- Smiles: "CCn1c(=O)c2c(nc(/C=C/c3ccc(C(C)=O)c(OC)c3)n2C)n(CC)c1=O"
  Observed Result: 95
- Smiles: "CCCn1c(=O)c2c(nc(/C=C/c3ccc(OC)c(C(C)=O)c3)n2C)n(CCC)c1=O"
  Observed Result: 93
- Smiles: "CCCn1c(=O)c2c(nc(/C=C/c3ccc(S(=O)(=O)O)cc3)n2C)n(CCC)c1=O"
  Observed Result: 89
- Smiles: "CCn1c(=O)c2c(nc(/C=C/c3ccc(C(=O)OC)cc3OC)n2C)n(CC)c1=O"
  Observed Result: 88
- Smiles: "CCn1c(=O)c2c(nc(/C=C/c3ccc(F)c(C(C)=O)c3)n2C)n(CC)c1=O"
  Observed Result: 86
- Smiles: "CCCn1c(=O)c2c(nc(/C=C/c3ccc(C(=O)OC)cc3OC)n2C)n(CCC)c1=O"
  Observed Result: 94
- Smiles: "CCCn1c(=O)c2c(nc(/C=C/c3ccc(C(=O)O)cc3OC)n2C)n(CCC)c1=O"
  Observed Result: 95
- Smiles: "CCn1c(=O)c2c(nc(/C=C/c3ccc(C(=O)O)cc3OC)n2C)n(CC)c1=O"
  Observed Result: 92

----------
Assay System: adenosine A2 receptor (Rattus norvegicus, UniProt P30543)
Construct: Corpus striatum of a rat was suspended in ice-cooled 50 mM Tris; from tissue; host or cells: rat corpus striatum (washed membrane suspension)
Run Description: Adenosine A2 Receptor Binding Test (3H-CGS 21680, rat corpus striatum)
Conditions Used: 10^-7 M; [3H]CGS 21680; read-out: A2 Receptor Inhibition Rate
Value Type: inhibition at 0.1 µM (%)

- Compound: "CCCn1c(=O)c2c(nc(/C=C/c3ccc(S(=O)(=O)O)cc3)n2C)n(CCC)c1=O [Compound 31]"
  Observed Result: 56
- Compound: "CCCn1c(=O)c2c(nc(/C=C/c3ccc(OC)c(C(C)=O)c3)n2C)n(CCC)c1=O [Compound 26]"
  Observed Result: 66
- Compound: "CCn1c(=O)c2c(nc(/C=C/c3ccc(F)c(C(C)=O)c3)n2C)n(CC)c1=O [Compound 28]"
  Observed Result: 76
- Compound: "CCn1c(=O)c2c(nc(/C=C/c3ccc(C(=O)O)cc3OC)n2C)n(CC)c1=O [Compound 22]"
  Observed Result: 60

// provenance: patent US5670498A
